biological target: recombinant human HDAC8 (Homo sapiens, UniProt Q9BY41); construct: purchased BPS Biosciences; assay: recombinant human HDAC8 enzymatic assay; format: biochemical; settings: 10-dose IC50 mode in duplicate, three-fold serial dilution
Sequence (Q9BY41 whole entry): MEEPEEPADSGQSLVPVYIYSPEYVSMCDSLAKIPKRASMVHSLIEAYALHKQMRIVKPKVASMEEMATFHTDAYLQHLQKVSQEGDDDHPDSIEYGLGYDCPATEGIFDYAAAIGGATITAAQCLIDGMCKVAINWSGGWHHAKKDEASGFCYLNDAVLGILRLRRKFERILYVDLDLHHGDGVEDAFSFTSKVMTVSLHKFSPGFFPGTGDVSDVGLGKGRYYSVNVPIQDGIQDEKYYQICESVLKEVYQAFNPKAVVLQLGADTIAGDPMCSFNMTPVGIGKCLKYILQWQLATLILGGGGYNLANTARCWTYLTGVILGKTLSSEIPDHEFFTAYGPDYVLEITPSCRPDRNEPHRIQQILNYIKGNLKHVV
Property measured: pIC50
Bear in mind: pIC50 is minus log10 of a mol/L concentration; give just that figure.

Field pIC50 (entry CSCC1NC(=O)C2(C)CSC(=N2)c2csc(n2)CNC(=O)CC(C(F)=CCCS)OC1=O (stereo not shown) [Compound 15c] ) reads 9.36

---

Test system: A549, HCT116 and SK-OV-3 cells
Test: in vitro growth inhibition (MTT), range over three cell lines
Type: cell-based
Conditions: towards A549, HCT116 and SK-OV-3 cells
Method: Eca-109, Bel 7402 and U937 cell lines were purchased from ATCC (Manassas, VA, USA), and the other tested cell lines were obtained from the Shanghai Institute for Biological Sciences, Chinese Academy of Sciences (Shanghai, China). […] The absorbance at 550 nm was measured by a SpectraMAX340 microplate reader (Molecular Devices, San Jose, CA, USA) with a reference wavelength at 690 nm. […]
Property measured: IC50

Data point: CCCCCCCC(=O)SCC/C=C(\F)[C@@H]1CC(=O)NCc2nc(cs2)C2=N[C@@](C)(CS2)C(=O)N[C@@H](CSC)C(=O)O1 [Compound 16c] ; IC50 = 1410 to 3130 nM

---

# pIC50 annotations
tested on: U937 cells; test: in vitro growth inhibition (MTT), U937 cells; assay type: cell-based; conditions: Homo sapiens, U-937, 72 h, at least seven-dose, duplicate
Hey, just a heads up that pIC50 is the negative log base 10 of the concentration in molar.

CCCCCCCC(=O)SCC/C=C/[C@@H]1CC(=O)NCc2nc(cs2)C2=N[C@@](C)(CS2)C(=O)N[C@@H](C(C)C)C(=O)O1 : 7.70

Please examine the following record next.
Consider CCCCCCCC(=O)SCC/C=C(\F)[C@@H]1CC(=O)NCc2nc(cs2)C2=N[C@@](C)(CS2)C(=O)N[C@@H](CSC)C(=O)O1 [Compound 16c] . Its measured pIC50 is 7.10

---

System: SK-OV-3 cells
Test: in vitro growth inhibition (MTT), SK-OV-3 cells
Type: cell-based
Details: Homo sapiens, 72 h, at least seven-dose, duplicate
Description: Eca-109, Bel 7402 and U937 cell lines were purchased from ATCC (Manassas, VA, USA), and the other tested cell lines were obtained from the Shanghai Institute for Biological Sciences, Chinese Academy of Sciences (Shanghai, China). […] The absorbance at 550 nm was measured by a SpectraMAX340 microplate reader (Molecular Devices, San Jose, CA, USA) with a reference wavelength at 690 nm. […]
# key: entry, value: pIC50
pIC50 is a log-scale quantity: -log10 of the concentration expressed in molar.

CCCCCCCC(=O)SCC/C=C(\F)[C@@H]1CC(=O)NCc2nc(cs2)C2=N[C@@](C)(CS2)C(=O)N[C@@H](CSC)C(=O)O1 [Compound 16c] : 5.50

Next up:
Documented pIC50 of CCCCCCCC(=O)SCC/C=C/[C@@H]1CC(=O)NCc2nc(cs2)C2=N[C@@](C)(CS2)C(=O)N[C@@H](C(C)C)C(=O)O1 : 6.60

---

target: recombinant human HDAC1 (Homo sapiens, UniProt Q13547); construct: purchased BPS Biosciences; assay: recombinant human HDAC1 enzymatic assay; assay type: biochemical; details: 10-dose IC50 mode in duplicate, three-fold serial dilution
Sequence (Q13547 whole entry): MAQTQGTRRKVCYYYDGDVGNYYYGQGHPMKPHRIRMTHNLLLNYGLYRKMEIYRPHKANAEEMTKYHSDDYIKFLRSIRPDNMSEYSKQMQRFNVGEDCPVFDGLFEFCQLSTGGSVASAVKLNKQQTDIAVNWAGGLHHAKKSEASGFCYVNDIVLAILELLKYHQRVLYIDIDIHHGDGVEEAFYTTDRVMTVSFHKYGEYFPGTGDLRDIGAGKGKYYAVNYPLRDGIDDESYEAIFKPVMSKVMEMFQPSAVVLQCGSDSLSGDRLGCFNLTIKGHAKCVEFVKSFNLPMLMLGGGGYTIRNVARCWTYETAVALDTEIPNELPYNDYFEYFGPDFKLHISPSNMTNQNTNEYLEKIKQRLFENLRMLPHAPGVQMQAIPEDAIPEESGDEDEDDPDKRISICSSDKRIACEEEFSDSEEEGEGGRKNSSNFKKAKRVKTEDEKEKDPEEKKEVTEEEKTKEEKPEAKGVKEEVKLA
Property measured: IC50 (nM)
The answer is to be given in nM; state only the numeric part.

// IC50 lookup, compound = CSCC1NC(=O)C2(C)CSC(=N2)c2csc(n2)CNC(=O)CC(C(F)=CCCS)OC1=O (stereo not shown) [Compound 15c] , result: 0.27
